- Assay comment: Pharmacokinetics of intraperitoneal or intravenous injection in CD1 mice (plasma, LC/MS/MS)
- Type: in vivo
- Test settings: male, CD1, mouse, plasma, ip, 10 mg/kg, IP 10 mg/kg, 24 h, read-out: Conc. Mouse 1
- Procedure: Pharmacokinetics of Intraperitoneal or Intravenous Injection of Example 1 or Example 2. The pharmacokinetics of Example 1 and 2 was examined for intraperitoneal and intravenous administration. The desired serial concentrations of working solutions were achieved by diluting stock solution (1 mg/mL in DMSO) of analyte with methanol. […] Then, 10 μL of the diluted supernatant was injected into the LC/MS/MS system for quantitative analysis. […]
Assay metric: concentration at 24 h (ng/mL)
Answer format: numeric, ng/mL implied, no suffix.

Prompt: Identify concentration at 24 h associated with the molecule COc1cc2c(Oc3ccc(NC(=O)C4(C(=O)Nc5ccc(F)cc5)CC4)cc3F)ccnc2cc1OCCCOCCCOCCC(=O)N[C@H](C(=O)N1C[C@H](O)C[C@H]1C(=O)NCc1ccc(-c2scnc2C)cc1)C(C)(C)C
Completion: 12.2

====

- Assay comment: Pharmacokinetics of intraperitoneal or intravenous injection in CD1 mice (plasma, LC/MS/MS)
- Assay type: in vivo
- Test settings: male, CD1, mouse, plasma, iv, 1 mg/kg, IV 1.0 mg/kg, 0.5 h, read-out: Conc. Mouse 2
Assay metric: concentration at 0.5 h (ng/mL)
Answer format: numeric, ng/mL implied, no suffix.

Prompt: Identify concentration at 0.5 h associated with the molecule COc1cc2c(Oc3ccc(NC(=O)C4(C(=O)Nc5ccc(F)cc5)CC4)cc3F)ccnc2cc1OCCCOCCCOCCC(=O)N[C@H](C(=O)N1C[C@H](O)C[C@H]1C(=O)NCc1ccc(-c2scnc2C)cc1)C(C)(C)C
Completion: 497

====

- Assay comment: Pharmacokinetics of intraperitoneal or intravenous injection in CD1 mice (plasma, LC/MS/MS)
- Assay type: in vivo
- Test settings: male, CD1, mouse, plasma, ip, 10 mg/kg, IP 10 mg/kg, 0.25 h, read-out: Conc. Mouse 1
Assay metric: concentration at 0.25 h (ng/mL)
Answer format: numeric, ng/mL implied, no suffix.

Prompt: Identify concentration at 0.25 h associated with the compound COc1cc2c(Oc3ccc(NC(=O)C4(C(=O)Nc5ccc(F)cc5)CC4)cc3F)ccnc2cc1OCCCOCCCOCCC(=O)N[C@H](C(=O)N1C[C@H](O)C[C@H]1C(=O)NCc1ccc(-c2scnc2C)cc1)C(C)(C)C
Completion: 3420

====

- Assay comment: Pharmacokinetics of intraperitoneal or intravenous injection in CD1 mice (plasma, LC/MS/MS)
- Type: in vivo
- Test settings: male, CD1, mouse, plasma, ip, 10 mg/kg, IP 10 mg/kg, 2 h, read-out: Conc. Mouse 3
Assay metric: concentration at 2 h (ng/mL)
Answer format: numeric, ng/mL implied, no suffix.

Prompt: Identify concentration at 2 h associated with the compound COc1cc2c(Oc3ccc(NC(=O)C4(C(=O)Nc5ccc(F)cc5)CC4)cc3F)ccnc2cc1OCCCOCCCOCCC(=O)N[C@H](C(=O)N1C[C@H](O)C[C@H]1C(=O)NCc1ccc(-c2scnc2C)cc1)C(C)(C)C
Completion: 10500

====

- Assay comment: Pharmacokinetics of intraperitoneal or intravenous injection in CD1 mice (plasma, LC/MS/MS)
- Type: in vivo
- Test settings: male, CD1, mouse, plasma, iv, 1 mg/kg, IV 1.0 mg/kg, 8 h, read-out: Conc. Mouse 2
- Protocol: Pharmacokinetics of Intraperitoneal or Intravenous Injection of Example 1 or Example 2. The pharmacokinetics of Example 1 and 2 was examined for intraperitoneal and intravenous administration. The desired serial concentrations of working solutions were achieved by diluting stock solution (1 mg/mL in DMSO) of analyte with methanol. […] Then, 10 μL of the diluted supernatant was injected into the LC/MS/MS system for quantitative analysis. […]
Assay metric: concentration at 8 h (ng/mL)
Answer format: numeric, ng/mL implied, no suffix.

Prompt: Identify concentration at 8 h associated with the compound COc1cc2c(Oc3ccc(NC(=O)C4(C(=O)Nc5ccc(F)cc5)CC4)cc3F)ccnc2cc1OCCCOCCCOCCC(=O)N[C@H](C(=O)N1C[C@H](O)C[C@H]1C(=O)NCc1ccc(-c2scnc2C)cc1)C(C)(C)C [Example 1]
Completion: 10.6

====

- Assay comment: Pharmacokinetics of intraperitoneal or intravenous injection in CD1 mice (plasma, LC/MS/MS)
- Format: in vivo
- Test settings: male, CD1, mouse, plasma, iv, 1 mg/kg, IV 1.0 mg/kg, 2 h, read-out: Conc. Mouse 2
Assay metric: concentration at 2 h (ng/mL)
Answer format: numeric, ng/mL implied, no suffix.

Prompt: Identify concentration at 2 h associated with the compound COc1cc2c(Oc3ccc(NC(=O)C4(C(=O)Nc5ccc(F)cc5)CC4)cc3F)ccnc2cc1OCCCOCCCOCCC(=O)N[C@H](C(=O)N1C[C@H](O)C[C@H]1C(=O)NCc1ccc(-c2scnc2C)cc1)C(C)(C)C
Completion: 92.9

====

- Assay system: p38δ (Homo sapiens, UniProt O15264)
- Construct: endogenous in cells; host or cells: MDA-MB-231 (intact cells for degradation; cleared cell lysate for CETSA)
- Sequence (O15264 1-365): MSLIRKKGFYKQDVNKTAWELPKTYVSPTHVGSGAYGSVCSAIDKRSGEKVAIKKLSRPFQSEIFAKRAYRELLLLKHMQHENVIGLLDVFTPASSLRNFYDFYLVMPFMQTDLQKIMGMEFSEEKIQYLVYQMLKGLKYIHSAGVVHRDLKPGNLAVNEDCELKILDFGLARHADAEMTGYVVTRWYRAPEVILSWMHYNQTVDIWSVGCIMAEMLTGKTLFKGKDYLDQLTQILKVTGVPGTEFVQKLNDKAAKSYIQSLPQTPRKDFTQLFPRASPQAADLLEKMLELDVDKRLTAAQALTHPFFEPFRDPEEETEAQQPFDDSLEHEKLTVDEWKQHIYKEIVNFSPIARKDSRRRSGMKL
- Assay comment: Cellular assay of target protein degradation (MDA-MB-231 cells, ELISA)
- Type: cell-based
Assay metric: Dmax (%)
Answer format: numeric, % implied, no suffix.

{"columns": ["Smiles", "Endpoint value"],
 "data": [
  ["COc1cc2c(Oc3ccc(NC(=O)C4(C(=O)Nc5ccc(F)cc5)CC4)cc3F)ccnc2cc1OCCOCCOCCOc1cc(-c2scnc2C)ccc1CNC(=O)[C@@H]1C[C@@H](O)CN1C(=O)[C@H](C(C)C)N1Cc2ccccc2C1=O", 93]
]}

Now take the following compound into account.
Prompt: Tell me Dmax of COc1cc2c(Oc3ccc(NC(=O)C4(C(=O)Nc5ccc(F)cc5)CC4)cc3F)ccnc2cc1OCCCOCCCOCCCOc1cc(-c2scnc2C)ccc1CNC(=O)[C@@H]1C[C@@H](O)CN1C(=O)[C@H](C(C)C)N1Cc2ccccc2C1=O when tested on p38δ (Homo sapiens, UniProt O15264).
Completion: 23

====

- Assay comment: Pharmacokinetics of intraperitoneal or intravenous injection in CD1 mice (plasma, LC/MS/MS)
- Assay type: in vivo
- Test settings: male, CD1, mouse, plasma, ip, 10 mg/kg, IP 10 mg/kg, 8 h, read-out: Conc. Mouse 3
Assay metric: concentration at 8 h (ng/mL)
Answer format: numeric, ng/mL implied, no suffix.

Prompt: Identify concentration at 8 h associated with the compound COc1cc2c(Oc3ccc(NC(=O)C4(C(=O)Nc5ccc(F)cc5)CC4)cc3F)ccnc2cc1OCCCOCCCOCCC(=O)N[C@H](C(=O)N1C[C@H](O)C[C@H]1C(=O)NCc1ccc(-c2scnc2C)cc1)C(C)(C)C [Example 1]
Completion: 429

====

- Assay comment: Pharmacokinetics of intraperitoneal or intravenous injection in CD1 mice (plasma, LC/MS/MS)
- Assay type: in vivo
- Test settings: male, CD1, mouse, plasma, ip, 10 mg/kg, IP 10 mg/kg, 4 h, read-out: Conc. Mouse 1
Assay metric: concentration at 4 h
# output: numeric value plus its unit

Prompt: Identify concentration at 4 h associated with the compound COc1cc2c(Oc3ccc(NC(=O)C4(C(=O)Nc5ccc(F)cc5)CC4)cc3F)ccnc2cc1OCCCOCCCOCCC(=O)N[C@H](C(=O)N1C[C@H](O)C[C@H]1C(=O)NCc1ccc(-c2scnc2C)cc1)C(C)(C)C
Completion: 6340 ng/mL

====

// DC50 lookup, one value per entry
- Assay system: p38δ (Homo sapiens, UniProt O15264)
- Construct: endogenous in cells; host or cells: MDA-MB-231 (intact cells for degradation; cleared cell lysate for CETSA)
- Sequence (O15264 1-365): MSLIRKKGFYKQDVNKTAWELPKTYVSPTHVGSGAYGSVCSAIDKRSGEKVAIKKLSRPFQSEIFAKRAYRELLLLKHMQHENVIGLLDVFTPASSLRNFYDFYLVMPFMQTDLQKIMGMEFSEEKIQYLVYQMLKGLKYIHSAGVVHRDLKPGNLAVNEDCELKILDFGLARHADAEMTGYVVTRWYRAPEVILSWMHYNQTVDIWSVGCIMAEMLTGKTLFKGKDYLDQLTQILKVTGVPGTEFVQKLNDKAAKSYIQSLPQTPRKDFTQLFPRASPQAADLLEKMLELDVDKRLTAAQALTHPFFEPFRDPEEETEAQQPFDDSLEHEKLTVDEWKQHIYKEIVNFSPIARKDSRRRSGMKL
- Assay comment: Western blot survey of p38 isoform degradation in MDA-MB-231 cells (incl. proteasome rescue, CHX chase, washout)
- Type: cell-based
- Test settings: MDA-MB-231 cells, western blot
- Procedure: FIGS. 11A and 11B. Survey of p38 isoform degradation with foretinib-based VHL PROTACs (related to FIGS. 9A-9C and Table 13). (A) Western blots of amide series PROTACs tested in increasing concentrations (0.025, 0.100, 0.250, 1.0, 5.0 μM) on MDA-MB-231 cells, in duplicate. […] FIGS. 13A, 13B, 13C, and 13D. […] (B) Quantitative real-time PCR was performed after 24 hours of treatment with either vehicle (DMSO), exemplary compound 50 (250 nM), or exemplary compound 46 (250 nM) in MDAMB-231 cells. […]

{"columns": ["Smiles", "DC50"],
 "data": [
  ["COc1cc2c(Oc3ccc(NC(=O)C4(C(=O)Nc5ccc(F)cc5)CC4)cc3F)ccnc2cc1OCCOCCOCCOc1cc(-c2scnc2C)ccc1CNC(=O)[C@@H]1C[C@@H](O)CN1C(=O)[C@H](C(C)C)N1Cc2ccccc2C1=O", "79.2 nM"],
  ["COc1cc2c(Oc3ccc(NC(=O)C4(C(=O)Nc5ccc(F)cc5)CC4)cc3F)ccnc2cc1OCCOCCOCCC(=O)N[C@H](C(=O)N1C[C@H](O)C[C@H]1C(=O)NCc1ccc(-c2scnc2C)cc1)C(C)(C)C", "51.4 nM"],
  ["COc1cc2c(Oc3ccc(NC(=O)C4(C(=O)Nc5ccc(F)cc5)CC4)cc3F)ccnc2cc1OCCCOCCOCCCOc1cc(-c2scnc2C)ccc1CNC(=O)[C@@H]1C[C@@H](O)CN1C(=O)[C@H](C(C)C)N1Cc2ccccc2C1=O", "4900 nM"]
]}

Now take the following compound into account.
Prompt: Identify DC50 associated with the compound COc1cc2c(Oc3ccc(NC(=O)C4(C(=O)Nc5ccc(F)cc5)CC4)cc3F)ccnc2cc1OCCCCOCCCCOCC(=O)N[C@H](C(=O)N1C[C@H](O)C[C@H]1C(=O)NCc1ccc(-c2scnc2C)cc1)C(C)(C)C
Completion: > 5000 nM
